Catalogue of melting temperature readings, one per entry.
# Test system: HeLa Kyoto
# protocol-text: melting temperature (median over replicates), in situ; higher = more thermally stable
# test-context: cell cycle stage: G1/S
Form entry: value (°C) — number only.

The following sequences have reported results that may help.
sequence-string	test-target	reported-value
MSKGTSSDTSLGRVSRAAFPSPTAAEMAEISRIQYEMEYTEGISQRMRVPEKLKVAPPNADLEQGFQEGVPNASVIMQVPERIVVAGNNEDVSFSRPADLDLIQSTPFKPLALKTPPRVLTLSERPLDFLDLERPPTTPQNEEIRAVGRLKRERSMSENAVRQNGQLVRNDSLWHRSDSAPRNKISRFQAPISAPEYTVTPSPQQARVCPPHMLPEDGANLSSARGILSLIQSSTRRAYQQILDVLDENRRPVLRGGSAAATSNPHHDNVRYGISNIDTTIEGTSDDLTVVDAASLRRQIIKLNRRLQLLEEENKERAKREMVMYSITVAFWLLNSWLWFRR [MFF]	HeLa Kyoto	51.6
MASPSLERPEKGAGKSEFRNQKPKPENQDESELLTVPDGWKEPAFSKEDNPRGLLEESSFATLFPKYREAYLKECWPLVQKALNEHHVNATLDLIEGSMTVCTTKKTFDPYIIIRARDLIKLLARSVSFEQAVRILQDDVACDIIKIGSLVRNKERFVKRRQRLIGPKGSTLKALELLTNCYIMVQGNTVSAIGPFSGLKEVRKVVLDTMKNIHPIYNIKSLMIKRELAKDSELRSQSWERFLPQFKHKNVNKRKEPKKKTVKKEYTPFPPPQPESQIDKELASGEYFLKANQKKRQKMEAIKAKQAEAISKRQEERNKAFIPPKEKPIVKPKEASTETKIDVASIKEKVKKAKNKKLGALTAEEIALKMEADEKKKKKKK [KRR1]	HeLa Kyoto	51.3
MANSGCKDVTGPDEESFLYFAYGSNLLTERIHLRNPSAAFFCVARLQDFKLDFGNSQGKTSQTWHGGIATIFQSPGDEVWGVVWKMNKSNLNSLDEQEGVKSGMYVVIEVKVATQEGKEITCRSYLMTNYESAPPSPQYKKIICMGAKENGLPLEYQEKLKAIEPNDYTGKVSEEIEDIIKKGETQTL [GGCT]	HeLa Kyoto	55.4
MAWTKYQLFLAGLMLVTGSINTLSAKWADNFMAEGCGGSKEHSFQHPFLQAVGMFLGEFSCLAAFYLLRCRAAGQSDSSVDPQQPFNPLLFLPPALCDMTGTSLMYVALNMTSASSFQMLRGAVIIFTGLFSVAFLGRRLVLSQWLGILATIAGLVVVGLADLLSKHDSQHKLSEVITGDLLIIMAQIIVAIQMVLEEKFVYKHNVHPLRAVGTEGLFGFVILSLLLVPMYYIPAGSFSGNPRGTLEDALDAFCQVGQQPLIAVALLGNISSIAFFNFAGISVTKELSATTRMVLDSLRTVVIWALSLALGWEAFHALQILGFLILLIGTALYNGLHRPLLGRLSRGRPLAEESEQERLLGGTRTPINDAS [SLC35F6]	HeLa Kyoto	60.1

Proceed to the following item.
Lab note: need melting temperature with HeLa Kyoto for entry MAAIRMGKLTTMPAGLIYASVSVHAAKQEESKKQLVKPEQLPIYTAPPLQSKYVEEQPGHLQMGFASIRTATGCYIGWCKGVYVFVKNGIMDTVQFGKDAYVYLKNPPRDFLPKMGVITVSGLAGLVSARKGSKFKKITYPLGLATLGATVCYPVQSVIIAKVTAKKVYATSQQIFGAVKSLWTKSSKEESLPKPKEKTKLGSSSEIEVPAKTTHVLKHSVPLPTELSSEAKTKSESTSGATQFMPDPKLMDHGQSHPEDIDMYSTRS [APOOL] , please look it up.
53.9

----------
# Tested on: HeLa Kyoto
# protocol-text: melting temperature (median over replicates), in situ; higher = more thermally stable
# test-context: cell cycle stage: G1/S
Catalogue of melting temperature readings, one per entry.
Form entry: value (°C) — number only.

The following substances have reported results that may help.
substance	result-units	melting temperature
MADKQISLPAKLINGGIAGLIGVTCVFPIDLAKTRLQNQQNGQRVYTSMSDCLIKTVRSEGYFGMYRGAAVNLTLVTPEKAIKLAANDFFRHQLSKDGQKLTLLKEMLAGCGAGTCQVIVTTPMEMLKIQLQDAGRIAAQRKILAAQGQLSAQGGAQPSVEAPAAPRPTATQLTRDLLRSRGIAGLYKGLGATLLRDVPFSVVYFPLFANLNQLGRPASEEKSPFYVSFLAGCVAGSAAAVAVNPCDVVKTRLQSLQRGVNEDTYSGILDCARKILRHEGPSAFLKGAYCRALVIAPLFGIAQVVYFLGIAESLLGLLQDPQA [SLC25A22]	°C	56.1
MPLGLGRRKKAPPLVENEEAEPGRGGLGVGEPGPLGGGGSGGPQMGLPPPPPALRPRLVFHTQLAHGSPTGRIEGFTNVKELYGKIAEAFRLPTAEVMFCTLNTHKVDMDKLLGGQIGLEDFIFAHVKGQRKEVEVFKSEDALGLTITDNGAGYAFIKRIKEGSVIDHIHLISVGDMIEAINGQSLLGCRHYEVARLLKELPRGRTFTLKLTEPRKAFDMISQRSAGGRPGSGPQLGTGRGTLRLRSRGPATVEDLPSAFEEKAIEKVDDLLESYMGIRDTELAATMVELGKDKRNPDELAEALDERLGDFAFPDEFVFDVWGAIGDAKVGRY [GIPC1]	°C	49.5
XPNPEP3	°C	53.4

Quick one: melting temperature for MAAPALGLVCGRCPELGLVLLLLLLSLLCGAAGSQEAGTGAGAGSLAGSCGCGTPQRPGAHGSSAAAHRYSREANAPGPVPGERQLAHSKMVPIPAGVFTMGTDDPQIKQDGEAPARRVTIDAFYMDAYEVSNTEFEKFVNSTGYLTEAEKFGDSFVFEGMLSEQVKTNIQQAVAAAPWWLPVKGANWRHPEGPDSTILHRPDHPVLHVSWNDAVAYCTWAGKRLPTEAEWEYSCRGGLHNRLFPWGNKLQPKGQHYANIWQGEFPVTNTGEDGFQGTAPVDAFPPNGYGLYNIVGNAWEWTSDWWTVHHSVEETLNPKGPPSGKDRVKKGGSYMCHRSYCYRYRCAARSQNTPDSSASNLGFRCAADRLPTMD [SUMF1] ?
53.7

Quick one: melting temperature for MATGGYRTSSGLGGSTTDFLEEWKAKREKMRAKQNPPGPAPPGGGSSDAAGKPPAGALGTPAAAAANELNNNLPGGAPAAPAVPGPGGVNCAVGSAMLTRAAPGPRRSEDEPPAASASAAPPPQRDEEEPDGVPEKGKSSGPSARKGKGQIEKRKLREKRRSTGVVNIPAAECLDEYEDDEAGQKERKREDAITQQNTIQNEAVNLLDPGSSYLLQEPPRTVSGRYKSTTSVSEEDVSSRYSRTDRSGFPRYNRDANVSGTLVSSSTLEKKIEDLEKEVVRERQENLRLVRLMQDKEEMIGKLKEEIDLLNRDLDDIEDENEQLKQENKTLLKVVGQLTR [PAWR] ?
60.6

Quick one: melting temperature for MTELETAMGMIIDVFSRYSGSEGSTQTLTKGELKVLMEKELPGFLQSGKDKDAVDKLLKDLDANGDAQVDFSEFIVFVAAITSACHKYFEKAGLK [S100P] ?
54.1

----------
Catalogue of thermal stability score readings, one per entry.
# System: HeLa Kyoto
# protocol-text: thermal stability score vs G1/S (z-score of summed log2 fold changes over temperatures); higher = more thermally stable than in G1/S
# test-context: cell cycle stage: mitosis
Give the value as a plain number.

sequence-string	measured-parameter	reported-value
MRVLVGGGTGFIGTALTQLLNARGHEVTLVSRKPGPGRITWDELAASGLPSCDAAVNLAGENILNPLRRWNETFQKEVIGSRLETTQLLAKAITKAPQPPKAWVLVTGVAYYQPSLTAEYDEDSPGGDFDFFSNLVTKWEAAARLPGDSTRQVVVRSGVVLGRGGGAMGHMLLPFRLGLGGPIGSGHQFFPWIHIGDLAGILTHALEANHVHGVLNGVAPSSATNAEFAQTLGAALGRRAFIPLPSAVVQAVFGRQRAIMLLEGQKVIPQRTLATGYQYSFPELGAALKEIVA [SDR39U1]	thermal stability score	-0.0339

Proceed to the following item.
Quick one: thermal stability score for MALQGISVVELSGLAPGPFCAMVLADFGARVVRVDRPGSRYDVSRLGRGKRSLVLDLKQPRGAAVLRRLCKRSDVLLEPFRRGVMEKLQLGPEILQRENPRLIYARLSGFGQSGSFCRLAGHDINYLALSGVLSKIGRSGENPYAPLNLLADFAGGGLMCALGIIMALFDRTRTGKGQVIDANMVEGTAYLSSFLWKTQKLSLWEAPRGQNMLDGGAPFYTTYRTADGEFMAVGAIEPQFYELLIKGLGLKSDELPNQMSMDDWPEMKKKFADVFAEKTKAEWCQIFDGTDACVTPVLTFEEVVHHDHNKERGSFITSEEQDVSPRPAPLLLNTPAIPSFKRDPFIGEHTEEILEEFGFSREEIYQLNSDKIIESNKVKASL [AMACR] ?
0.6
